Data origin: ChEMBL document CHEMBL1147988

target: Sigma 2 receptor; test: Displacement of [3H]ditolylguanidine from sigma 2 receptor in Sprague-Dawley rat liver membrane
endpoint_name: pKi
Field pKi (float): negative decimal logarithm of the concentration in molar.

# molecule, pKi
records = [
    ("CO[C@@H]1CC[C@H]2CN(C)[C@@H]1CN2Cc1ccccc1", 6.49),
]

Under Sigma 2 receptor: pKi value of COC1CCC2CN(CCc3ccccc3)C1CN2Cc1ccccc1 (configuration not stated) ?
6.53

Param readout = pKi; param system = Sigma 2 receptor; param query = O[C@@H]1CCC2CN(CCc3ccccc3)C1CN2Cc1ccccc1 (some centres not stated) ; response: value
6.46

Hi! What's the reported pKi for CCCCN1CC2CCC(OCc3ccccc3)C1CN2Cc1ccccc1 (configuration not stated) on Sigma 2 receptor?
6.09

---

molecular target: UniProt P41144
Sequence (P41144 whole entry): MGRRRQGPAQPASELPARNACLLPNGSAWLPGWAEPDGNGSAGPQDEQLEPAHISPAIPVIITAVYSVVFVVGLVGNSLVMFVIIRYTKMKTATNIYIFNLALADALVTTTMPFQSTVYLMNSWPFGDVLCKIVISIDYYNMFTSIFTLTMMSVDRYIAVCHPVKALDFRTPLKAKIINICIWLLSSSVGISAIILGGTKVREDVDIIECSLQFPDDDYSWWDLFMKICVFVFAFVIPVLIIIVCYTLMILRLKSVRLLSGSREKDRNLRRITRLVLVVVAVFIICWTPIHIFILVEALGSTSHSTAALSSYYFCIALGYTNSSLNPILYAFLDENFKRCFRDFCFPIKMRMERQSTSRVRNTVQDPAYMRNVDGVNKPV
endpoint_name: Ki (nM)
Use nM as the unit, but write only the number.

A selection of reference data follows.
# compound, units_symbol, Ki
rows = [
    ("OC1CCC2CN(CCc3ccccc3)C1CN2Cc1ccccc1 (single isomer, unassigned)", "nM", 1290),
    ("CCCCN1CC2CCC(O)C1CN2Cc1ccccc1 (stereo unspecified)", "nM", 1600),
    ("CN1C[C@@H]2CC[C@@H](OCc3ccccc3)[C@H]1CN2Cc1ccccc1", "nM", 585),
]

Item CCCCN1CC2CCC(OCc3ccccc3)C1CN2Cc1ccccc1 (stereo unspecified) with UniProt P41144 - Ki?
1110

Reported Ki for UniProt P41144, given c1ccc(CCN2CC3CCC(OCc4ccccc4)C2CN3Cc2ccccc2)cc1 (stereo unspecified) ?
2230

---

Known Ki of a selection of compounds
experiment: Displacement of [3H]MK-801 from NMDA receptor in guinea pig brain membrane; assay type: cell membranes, Cavia porcellus

# compound, endpoint_name, result
data = [
    ("c1ccc(C2(N3CCCCC3)CCCCC2)cc1 [PHENCYCLIDINE]", "Ki", "28 nM"),
]

Could you now consider this next compound?
What does the data say about its Ki? Entry: CN[C@]1(c2ccccc2Cl)CCCCC1=O [ESKETAMINE]
108 nM

---

inhibition values by entry
biological target: Mu-type opioid receptor (Cavia porcellus); test: Displacement of [3H]DAMGO from mu opioid receptor in guinea pig brain membrane at 10 uM; format: cell membranes
Sequence (P97266 whole entry): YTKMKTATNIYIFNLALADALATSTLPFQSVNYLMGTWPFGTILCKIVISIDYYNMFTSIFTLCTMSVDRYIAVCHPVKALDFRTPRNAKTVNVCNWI
Value expressed in %; do not type the unit.

# molecule, experimental_system, inhibition [%]
rows = [
    ("COC1CCC2CN(CCc3ccccc3)C1CN2Cc1ccccc1 (centres undefined)", "Mu-type opioid receptor (Cavia porcellus)", 68.6),
]

Which inhibition is listed for "CO[C@@H]1CC[C@H]2CN(C)[C@@H]1CN2Cc1ccccc1" ?
21.5

Given c1ccc(CCN2CC3CCC(OCc4ccccc4)C2CN3Cc2ccccc2)cc1 (centres undefined) , state its recorded inhibition.
34.8

Bench note: what inhibition did "COC1(OC)CC[C@H]2CN(C)[C@@H]1CN2Cc1ccccc1" show?
27.6

Could you share which inhibition value was measured for CCCCN1CC2CCC(OC)C1CN2Cc1ccccc1 (centres undefined) ?
37.4

Given the molecule CN1CC2CCC(O)C1CN2Cc1ccccc1 (single isomer, unassigned; form 2) , what is its reported inhibition?
8.5

---

Each item that follows carries a reported pKi.
target: Mu-type opioid receptor (Cavia porcellus)
Please treat pKi as minus the base-10 logarithm of the molar concentration.

Please review the following examples before continuing.
# molecule, quantitative_result
records = [
    ("CCCCN1CC2CCC(OCc3ccccc3)C1CN2Cc1ccccc1 (stereo not drawn)", 5.48),
    ("O[C@@H]1CCC2CN(CCc3ccccc3)C1CN2Cc1ccccc1 (stereo partly drawn)", 5.30),
]

Then there is this molecule:
Tell me reported pKi for OC1CCC2CN(CCc3ccccc3)C1CN2Cc1ccccc1 (single isomer, unassigned) , tested with Mu-type opioid receptor (Cavia porcellus).
5.39

---

target: Sigma non-opioid intracellular receptor 1 (Cavia porcellus); experiment: Displacement of [3H](+)-pentazocine from sigma 1 receptor in guinea pig brain membrane
Sequence (Q60492 whole entry): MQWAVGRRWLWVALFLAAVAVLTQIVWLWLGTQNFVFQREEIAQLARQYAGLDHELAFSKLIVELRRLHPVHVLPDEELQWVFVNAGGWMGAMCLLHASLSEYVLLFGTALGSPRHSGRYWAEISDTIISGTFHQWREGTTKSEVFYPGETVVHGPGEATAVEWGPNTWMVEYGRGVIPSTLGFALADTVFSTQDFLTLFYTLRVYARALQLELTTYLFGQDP
Threshold 30 nM. Ki below it: yes (1). Ki at it or above: no (0).

# compound, answer_label
measured = [
    ("O[C@@H]1CCC2CN(CCc3ccccc3)C1CN2Cc1ccccc1 (some centres not stated)", "no (0)"),
    ("CN1CC2CCC(O)C1CN2Cc1ccccc1 (single isomer, unassigned; form 1)", "no (0)"),
    ("CCCCN1CC2CCC(O)C1CN2Cc1ccccc1 (configuration not stated)", "yes (1)"),
    ("COC1CCC2CN(CCc3ccccc3)C1CN2Cc1ccccc1 (configuration not stated)", "no (0)"),
    ("CN1C[C@@H]2CC[C@@H](OCc3ccccc3)[C@H]1CN2Cc1ccccc1", "yes (1)"),
    ("CN1CC2CCC(O)C1CN2Cc1ccccc1 (single isomer, unassigned; form 2)", "no (0)"),
    ("CO[C@@H]1CC[C@H]2CN(C)[C@@H]1CN2Cc1ccccc1", "no (0)"),
    ("COC1(OC)CC[C@H]2CN(C)[C@@H]1CN2Cc1ccccc1", "no (0)"),
]

Answer whether the compound c1ccc(CCN2CC3CCC(OCc4ccccc4)C2CN3Cc2ccccc2)cc1 (configuration not stated) has Ki strictly less than 30 nM
no (0)

Check if Ki falls below 30 nM for CCCCN1CC2CCC(OCc3ccccc3)C1CN2Cc1ccccc1 (configuration not stated) .
no (0)

Determine whether this compound shows Ki lower than 30 nM (ties excluded): CCCCN1CC2CCC(OC)C1CN2Cc1ccccc1 (configuration not stated)
yes (1)

---

target: Sigma 2 receptor; experiment: Displacement of [3H]ditolylguanidine from sigma 2 receptor in Sprague-Dawley rat liver membrane
Listed molecules paired with reported log10 Ki
Log scale reminder: Ki in nM, then log10 taken.

# molecule, log10 Ki
measured = [
    ("CN1CC2CCC(O)C1CN2Cc1ccccc1 (single isomer, unassigned; form 2)", 3.62),
    ("OC1CCC2CN(CCc3ccccc3)C1CN2Cc1ccccc1 (single isomer, unassigned)", 2.77),
    ("CCCCN1CC2CCC(O)C1CN2Cc1ccccc1 (stereo not drawn)", 2.65),
    ("c1ccc(CCN2CC3CCC(OCc4ccccc4)C2CN3Cc2ccccc2)cc1 (stereo not drawn)", 2.80),
    ("CN1C[C@@H]2CC[C@@H](OCc3ccccc3)[C@H]1CN2Cc1ccccc1", 1.48),
    ("CN1CC2CCC(O)C1CN2Cc1ccccc1 (single isomer, unassigned; form 1)", 3.46),
    ("COC1(OC)CC[C@H]2CN(C)[C@@H]1CN2Cc1ccccc1", 3.26),
]

# value lookup — system Sigma 2 receptor, readout log10 Ki, item CCCCN1CC2CCC(OC)C1CN2Cc1ccccc1 (stereo not drawn)
2.34

---

Reported inhibition values follow for various compounds
molecular target: UniProt P97266; test: Displacement of [3H]DAMGO from mu opioid receptor in guinea pig brain membrane at 10 uM; type: cell membranes
The response must be a number in % with no trailing unit.

# compound, experimental_system, inhibition, %
data = [
    ("CN1C[C@@H]2CC[C@@H](OCc3ccccc3)[C@H]1CN2Cc1ccccc1", "UniProt P97266", 70.4),
]

Look at this compound and give its reported inhibition. CN1CC2CCC(O)C1CN2Cc1ccccc1 (single isomer, unassigned; form 1)
4.7

Name the reported inhibition value associated with the compound CCCCN1CC2CCC(O)C1CN2Cc1ccccc1 (stereo not drawn)
37.9
